molecular target: T1, hPRLR.mFc (soluble dimeric human PRLR) (Homo sapiens, UniProt P16471); test: Surface plasmon resonance (Biacore T200), mAb-capture format; format: binding; conditions: 37° C., antibody-capture format, analyte hPRLR.mFc
T1 construct: dimeric (hPRLR.mFc)
T1 sequence (P16471 with tags, fused parts or gaps): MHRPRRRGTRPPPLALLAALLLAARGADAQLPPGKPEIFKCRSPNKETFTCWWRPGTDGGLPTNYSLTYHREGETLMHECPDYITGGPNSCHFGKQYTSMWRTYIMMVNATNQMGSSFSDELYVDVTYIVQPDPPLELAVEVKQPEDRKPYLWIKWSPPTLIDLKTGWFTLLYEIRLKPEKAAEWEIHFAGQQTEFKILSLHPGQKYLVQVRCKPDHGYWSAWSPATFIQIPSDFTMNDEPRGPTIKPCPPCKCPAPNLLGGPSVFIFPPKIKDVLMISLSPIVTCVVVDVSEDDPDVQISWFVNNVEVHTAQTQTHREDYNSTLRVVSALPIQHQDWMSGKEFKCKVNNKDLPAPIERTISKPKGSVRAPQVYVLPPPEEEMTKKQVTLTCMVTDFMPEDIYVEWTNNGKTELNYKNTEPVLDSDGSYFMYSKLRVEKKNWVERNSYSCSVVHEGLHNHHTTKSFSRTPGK
Catalogue of pKd values
# pKd: negative log10 of molar concentration; output just the value

>>> reported("H1H6785P: anti-PRLR antibody, human IgG1 Fc; HCVR/LCVR SEQ ID NOs 98/106 (antibody, V domains shown, human IgG1 Fc) VH: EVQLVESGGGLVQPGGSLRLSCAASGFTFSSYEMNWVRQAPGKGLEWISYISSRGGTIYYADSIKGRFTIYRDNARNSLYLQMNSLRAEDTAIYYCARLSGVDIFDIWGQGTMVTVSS VL: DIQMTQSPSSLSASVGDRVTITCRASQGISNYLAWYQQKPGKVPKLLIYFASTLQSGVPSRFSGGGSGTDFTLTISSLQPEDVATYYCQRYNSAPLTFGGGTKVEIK")
9.59
>>> reported("H1H6782P: anti-PRLR antibody, human IgG1 Fc; HCVR/LCVR SEQ ID NOs 66/74; non-blocking (antibody, V domains shown, human IgG1 Fc) VH: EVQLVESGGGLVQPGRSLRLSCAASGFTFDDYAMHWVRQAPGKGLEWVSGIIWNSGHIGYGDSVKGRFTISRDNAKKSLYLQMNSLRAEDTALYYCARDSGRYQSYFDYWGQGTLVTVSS VL: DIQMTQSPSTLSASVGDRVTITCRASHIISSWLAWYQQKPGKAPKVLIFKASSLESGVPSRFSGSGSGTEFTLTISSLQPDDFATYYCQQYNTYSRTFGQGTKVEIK")
9.66

Please turn your attention to the following entry.
Requested field: pKd. Item: H1H6803P: anti-PRLR antibody, human IgG1 Fc; HCVR/LCVR SEQ ID NOs 226/234 (antibody, V domains shown, human IgG1 Fc) VH: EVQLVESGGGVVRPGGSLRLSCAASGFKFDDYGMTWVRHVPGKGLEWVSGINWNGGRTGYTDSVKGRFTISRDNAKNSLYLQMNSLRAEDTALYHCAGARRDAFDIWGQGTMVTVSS VL: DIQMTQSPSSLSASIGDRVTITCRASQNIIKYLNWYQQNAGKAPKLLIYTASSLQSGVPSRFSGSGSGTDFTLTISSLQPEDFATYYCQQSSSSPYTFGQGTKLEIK
9.34

All figures here come from patent US9688764B2.
